Data credit: ChEMBL document CHEMBL5058577

test system: Fibroblast; assay: Multiplex assay against human fibroblast; assay type: toxicity, cell-based; conditions: 24 h, 1 µM, compound concentration 1 uM, replicate 2
Categories are assigned from the measured Population Tubulin-Different-Phenotype (%) using these intervals: zone 1 = under 40%, zone 2 = from 40% up to 50%, zone 3 = 50% and over

Illustrative cases are given below, each with its answer.
{"columns": ["COMPOUND", "CLASS ASSIGNMENT"],
 "data": [
  ["CNC[C@H](O)c1ccc(O)c(O)c1 [EPINEPHRINE]", "zone 1"],
  ["N[C@@]1(C(=O)O)CO[C@H]2[C@H](C(=O)O)[C@H]21", "zone 3"],
  ["CSc1ccccc1N1CCN(CCCCCC(=O)NC2CCCc3ccccc32)CC1.Cl (centres undefined)", "zone 3"],
  ["N#Cc1c(N)nc(SCc2csc(-c3ccc(Cl)cc3)n2)c(C#N)c1-c1ccc(OCCO)cc1", "zone 3"],
  ["CSCC[C@H](NC=O)C(=O)N[C@@H](CC(C)C)C(=O)N[C@@H](Cc1ccccc1)C(=O)O", "zone 2"],
  ["CCCn1c(=O)c2[nH]c(C3CCCC3)nc2n(CCC)c1=O", "zone 3"],
  ["Oc1c(CN2CCN(c3ccccn3)CC2)cc(Cl)c2cccnc12", "zone 2"],
  ["CN1CCN2c3ncccc3Cc3ccccc3C2C1 (centres undefined)", "zone 1"],
  ["C[C@H]1[C@H]2CC[C@H]3[C@@H]4CC=C5C[C@@H](N(C)C)CC[C@]5(C)[C@H]4CC[C@]23CN1C", "zone 3"]
]}

Into which category would you place "COc1cc(C(=O)N(CCCc2ccccc2)Cc2ccc(CC(=O)O)cc2)cc(OC)c1C" ?
zone 1

###

tested on: U2OS; test: Multiplex assay against U2OS; assay type: toxicity, cell-based; settings: human, 48 h, 1 µM, compound concentration 1 uM, replicate 2
READOUT LABEL: Population Healthy Nuclei (%)
Quick note: give the figure in %, leave out the unit.

Example entries begin here.
{"columns": ["MOLECULE", "VALUE UNIT", "MEAS VALUE"],
 "data": [
  ["CN(C)CCCc1cc(C(=O)Nc2ccc(-c3ccncc3)cc2)ccc1O.Cl.Cl", "%", 71],
  ["C[C@H](NC(=O)c1c(C(F)F)nn(C)c1Oc1cccc(C(F)(F)F)c1)c1ccc(C(=O)O)cc1 [PALUPIPRANT]", "%", 70],
  ["CCNC1(C(N)=O)CCN(c2ncnc3c2nc(-c2ccccc2Cl)n3-c2ccc(Cl)cc2)CC1 [OTENABANT]", "%", 69]
]}

Dear colleague, please send me the reported Population Healthy Nuclei (%) for "CSCC[C@H](NC=O)C(=O)N[C@@H](CC(C)C)C(=O)N[C@@H](Cc1ccccc1)C(=O)O" when you can.
68

Dear colleague, please send me the reported Population Healthy Nuclei (%) for CCCN1CCC[C@@H]2Cc3n[nH]cc3C[C@H]21.Cl [QUINPIROLE HYDROCHLORIDE] when you can.
69

Dear colleague, please send me the reported Population Healthy Nuclei (%) for CCCC(CCC)C(=O)O [VALPROIC ACID] when you can.
72

Dear colleague, please send me the reported Population Healthy Nuclei (%) for O=S(=O)(c1ccccc1)c1cnc2c(N3CCNCC3)cccc2c1 [INTEPIRDINE] when you can.
68

Dear colleague, please send me the reported Population Healthy Nuclei (%) for COc1cc(NC(=O)CCN2CCC(OC(=O)Nc3ccccc3-c3ccccc3)CC2)c(Cl)cc1CNC[C@H](O)c1ccc(O)c2[nH]c(=O)ccc12 [BATEFENTEROL] when you can.
64

Dear colleague, please send me the reported Population Healthy Nuclei (%) for C[C@H]1[C@H]2CC[C@H]3[C@@H]4CC=C5C[C@@H](N(C)C)CC[C@]5(C)[C@H]4CC[C@]23CN1C [CONESSINE] when you can.
73

Dear colleague, please send me the reported Population Healthy Nuclei (%) for C[C@@H]1C[C@H]2[C@@H]3CCC4=CC(=O)C=C[C@]4(C)[C@@]3(F)[C@@H](O)C[C@]2(C)[C@@]1(O)C(=O)CO [DEXAMETHASONE] when you can.
74

###

test system: Fibroblast; assay: Multiplex assay against human fibroblast; assay type: toxicity, cell-based; settings: 12 h, 10 µM, compound concentration 10 uM, replicate 1
Catalogue of Population Normal (%) readings, one per entry.
Quick note: give the figure in %, leave out the unit.

Example entries begin here.
{"columns": ["COMPOUND", "Population Normal (%)"],
 "data": [
  ["O=C(NCCO)c1cccc(-c2cc(Nc3ccc(OC(F)(F)F)cc3)ncn2)c1", 94],
  ["CCNC1(C(N)=O)CCN(c2ncnc3c2nc(-c2ccccc2Cl)n3-c2ccc(Cl)cc2)CC1 [OTENABANT]", 95],
  ["O=C(O)c1cc2ccccc2c(Cc2c(O)c(C(=O)O)cc3ccccc23)c1O [PAMOIC ACID]", 95],
  ["Cc1ccc(C(C)(O)c2nc3ccccc3s2)c(C)c1 (centres undefined)", 98],
  ["C[C@@H]1C[C@H]2[C@@H]3CCC4=CC(=O)C=C[C@]4(C)[C@@]3(F)[C@@H](O)C[C@]2(C)[C@@]1(O)C(=O)CO [DEXAMETHASONE]", 98],
  ["CC1(COc2ccc3c(c2)ncn3-c2ccc3cccc(N4CCC(N)CC4)c3n2)COC1 [CRENOLANIB]", 95],
  ["COc1c(C)cc(NC(=O)c2nn(Cc3ccc(F)cc3)c3c2CN(C(=O)c2ccc[nH]2)C[C@]3(C)C(N)=O)cc1C", 98],
  ["O=C1COc2nccc(-c3ccccc3F)c2CN1Cc1cc(C(F)(F)F)cc(C(F)(F)F)c1", 94]
]}

Dear colleague, please send me the reported Population Normal (%) for CNC[C@H](O)c1ccc(O)c(O)c1 [EPINEPHRINE] when you can.
96

Dear colleague, please send me the reported Population Normal (%) for "CCOc1c2c(c(OCC)c3ncccc13)CN(c1ccc(CS(=O)(=O)NC(=O)Cc3ccccc3OC)cc1C)C2=O" when you can.
98

Dear colleague, please send me the reported Population Normal (%) for O=C(O)Cc1ccccc1Nc1c(Cl)cccc1Cl [DICLOFENAC] when you can.
99

Dear colleague, please send me the reported Population Normal (%) for CSc1ccccc1N1CCN(CCCCCC(=O)NC2CCCc3ccccc32)CC1.Cl (centres undefined) when you can.
94

Dear colleague, please send me the reported Population Normal (%) for COc1cc(NC(=O)CCN2CCC(OC(=O)Nc3ccccc3-c3ccccc3)CC2)c(Cl)cc1CNC[C@H](O)c1ccc(O)c2[nH]c(=O)ccc12 [BATEFENTEROL] when you can.
97

Dear colleague, please send me the reported Population Normal (%) for O=C(NCC(=O)N1CC[C@H](N[C@H]2CC[C@@](O)(c3ccc(-c4ncccn4)cn3)CC2)C1)c1cccc(C(F)(F)F)c1 [PF-4136309] when you can.
97

###

test system: U2OS; experiment: Multiplex assay against U2OS; assay type: toxicity, cell-based; conditions: human, 24 h, 10 µM, compound concentration 10 uM, replicate 1
Catalogue of Population Healthy Nuclei (%) readings, one per entry.
Quick note: give the figure in %, leave out the unit.

{"columns": ["COMPOUND", "MEASURED ON", "READOUT LABEL", "MEAS VALUE"],
 "data": [
  ["Cc1nc2ccc(Oc3ccc(F)cc3)cc2c(=O)n1C[C@H]1CCCN(C(C)C)C1.Cl", "U2OS", "Population Healthy Nuclei (%)", 57],
  ["Cc1ccc(F)cc1C(=O)Nc1ccc(C(=O)N2Cc3cccn3Cc3ccccc32)c(Cl)c1", "U2OS", "Population Healthy Nuclei (%)", 50],
  ["CSc1ccccc1N1CCN(CCCCCC(=O)NC2CCCc3ccccc32)CC1.Cl (stereo unspecified)", "U2OS", "Population Healthy Nuclei (%)", 28]
]}

Dear colleague, please send me the reported Population Healthy Nuclei (%) for "CN(C)c1ccnc2sc3c(=O)n(N4CCCCCC4)cnc3c12" when you can.
56

Dear colleague, please send me the reported Population Healthy Nuclei (%) for "COc1c(C)cc(NC(=O)c2nn(Cc3ccc(F)cc3)c3c2CN(C(=O)c2ccc[nH]2)C[C@]3(C)C(N)=O)cc1C" when you can.
41

Dear colleague, please send me the reported Population Healthy Nuclei (%) for "CN1CCN(c2nc3cc(C(F)(F)F)ccc3n3cccc23)CC1.O=C(O)/C=C\C(=O)O.O=C(O)/C=C\C(=O)O" when you can.
57

###

tested on: Fibroblast; assay: Multiplex assay against human fibroblast; type: toxicity, cell-based; conditions: 24 h, 1 µM, compound concentration 1 uM, replicate 2
Catalogue of Population Apoptotic (%) readings, one per entry.
Quick note: give the figure in %, leave out the unit.

Example entries begin here.
{"columns": ["COMPOUND", "Population Apoptotic (%)"],
 "data": [
  ["O=C(O)Cc1ccccc1Nc1c(Cl)cccc1Cl", 35],
  ["CC(=O)NCCc1c(Cc2ccccc2)[nH]c2ccccc12", 45],
  ["N[C@@]1(C(=O)O)CO[C@H]2[C@H](C(=O)O)[C@H]21", 47],
  ["c1cc(OCCCN2CCCCC2)ccc1CN1CCCCC1", 33],
  ["COc1cc(NC(=O)CCN2CCC(OC(=O)Nc3ccccc3-c3ccccc3)CC2)c(Cl)cc1CNC[C@H](O)c1ccc(O)c2[nH]c(=O)ccc12", 50],
  ["O=C1COc2nccc(-c3ccccc3F)c2CN1Cc1cc(C(F)(F)F)cc(C(F)(F)F)c1", 34],
  ["CC(C)(C)c1ccc(S(=O)(=O)Nc2ccc(Cl)cc2C(=O)c2cc[n+]([O-])cc2)cc1", 54],
  ["CCOc1c2c(c(OCC)c3ncccc13)CN(c1ccc(CS(=O)(=O)NC(=O)Cc3ccccc3OC)cc1C)C2=O", 46],
  ["CCCC(CCC)C(=O)O", 48],
  ["Oc1c(CN2CCN(c3ccccn3)CC2)cc(Cl)c2cccnc12", 45]
]}

Look up and report measured Population Apoptotic (%) (Fibroblast) for the following compound: CCCN1CCC[C@@H]2Cc3n[nH]cc3C[C@H]21.Cl [QUINPIROLE HYDROCHLORIDE]
34

Look up and report measured Population Apoptotic (%) (Fibroblast) for the following compound: "C[C@H]1[C@H]2CC[C@H]3[C@@H]4CC=C5C[C@@H](N(C)C)CC[C@]5(C)[C@H]4CC[C@]23CN1C"
40

Look up and report measured Population Apoptotic (%) (Fibroblast) for the following compound: "Cc1ccc(/C(=C\CN2CCCC2)c2ccccn2)cc1"
46

Look up and report measured Population Apoptotic (%) (Fibroblast) for the following compound: "COc1cc(C(=O)N(CCCc2ccccc2)Cc2ccc(CC(=O)O)cc2)cc(OC)c1C"
52

Look up and report measured Population Apoptotic (%) (Fibroblast) for the following compound: "CCNC1(C(N)=O)CCN(c2ncnc3c2nc(-c2ccccc2Cl)n3-c2ccc(Cl)cc2)CC1"
34

Look up and report measured Population Apoptotic (%) (Fibroblast) for the following compound: "O=C(NCCO)c1cccc(-c2cc(Nc3ccc(OC(F)(F)F)cc3)ncn2)c1"
52

Look up and report measured Population Apoptotic (%) (Fibroblast) for the following compound: "Cc1nc2ccc(Oc3ccc(F)cc3)cc2c(=O)n1C[C@H]1CCCN(C(C)C)C1.Cl"
38

Look up and report measured Population Apoptotic (%) (Fibroblast) for the following compound: O=S(=O)(c1ccccc1)c1cnc2c(N3CCNCC3)cccc2c1 [INTEPIRDINE]
41

Look up and report measured Population Apoptotic (%) (Fibroblast) for the following compound: "O=C(O)c1cc2ccccc2c(Cc2c(O)c(C(=O)O)cc3ccccc23)c1O"
32

Look up and report measured Population Apoptotic (%) (Fibroblast) for the following compound: "CN1CCN(c2nc3cc(C(F)(F)F)ccc3n3cccc23)CC1.O=C(O)/C=C\C(=O)O.O=C(O)/C=C\C(=O)O"
40

Look up and report measured Population Apoptotic (%) (Fibroblast) for the following compound: "CC1(COc2ccc3c(c2)ncn3-c2ccc3cccc(N4CCC(N)CC4)c3n2)COC1"
50

Look up and report measured Population Apoptotic (%) (Fibroblast) for the following compound: Cl.Clc1ccc2nsnc2c1NC1=NCCN1 [TIZANIDINE HYDROCHLORIDE]
42
